B1: IQUB (parent)
chain: CRNCINLQNEAQKRESFLKYKCLL

variants of: B1; test: protein stability index of a GFP-peptide fusion (GPS, HEK-293T) (PSI 1-6); higher = more stable; conditions: c terminus: a fixed tail appended;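 also: lentivirally expressed fusions sorted by FACS into six bins by GFP to DsRed ratio, PSI derived from sequencing read proportions per bin multiplied by bin number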
observable: protein stability index
Answers are plain numbers.

| sequence code | protein stability index |
| --- | --- |
| CRHCINLQNEAQKRESFLKYKCLL [N3H] | 1.99 |
| CRNCINLQNEAQKRESFLKYDCLL [K21D] | 2.06 |
| CRNCENLQNEAQKRESFLKYKCLL [I5E] | 2.53 |
| CRNCINLQNEAQHRESFLKYKCLL [K13H] | 2.74 |
| CRNCINLQNIAQKRESFLKYKCLL [E10I] | 1.35 |
| CRNCINLQNPAQKRESFLKYKCLL [E10P] | 1.37 |
| CRNFINLQNEAQKRESFLKYKCLL [C4F] | 2.15 |
| CRNCINLQNEAQKRECFLKYKCLL [S16C] | 1.53 |

Return reported protein stability index values for all items listed beneath this line.
1. CRNCINLQNEAQKRESKLKYKCLL [F17K]
2. CRNCINLQNEAQMRESFLKYKCLL [K13M]
3. CRNCINLRNEAQKRESFLKYKCLL [Q8R]
4. CFNCINLQNEAQKRESFLKYKCLL [R2F]
5. CRNCINLQNEAQKRESFLKYKCIL [L23I]
6. CRNCINLQNEAQQRESFLKYKCLL [K13Q]

Ans.
2.33
1.8
2.17
1.89
2.25
1.75

Could I get protein stability index for every one of these entries?
1. CRNCINLQNEAQKRESFLKYKCFL [L23F]
2. CRNCINLQNEAQKRLSFLKYKCLL [E15L]
3. CRNCINLQNEAQKRESFKKYKCLL [L18K]
4. CRNCINLQNEAQKRESFLKYGCLL [K21G]
5. CRNCINLQNNAQKRESFLKYKCLL [E10N]

Ans.
2.53
2.77
2.15
2.7
1.94
